Where do the numbers come from? From ChEMBL document CHEMBL1135776.

Could you please report measured Ratio for the items listed next?
Assay: Discrimination ratio against DAT as ratio of IC50 to that of Ki uptake to DAT.
Type: functional
Give a plain numeric answer without units written out.

Quick check: Ratio of OC1(c2ccc(Cl)cc2)c2ccc3ccccc3c2C2=NCCCN21 (stereo unspecified) ?
182

Quick check: Ratio of OC1(c2ccc(Cl)cc2)c2ccc3ccccc3c2C2=NCCN21 (stereo unspecified) ?
3.2

Quick check: Ratio of OC1(c2ccc3ccccc3c2)c2ccccc2C2=NCCN21 (stereo unspecified) ?
1.5

Quick check: Ratio of OC1(c2ccc(Cl)cc2)c2ccccc2C2=N[C@H]3CCCC[C@@H]3N21 (stereo partly specified) ?
0.4

Quick check: Ratio of OC1(c2ccc3ccccc3c2)c2ccc3ccccc3c2C2=NCCN21 (stereo unspecified) ?
311

Quick check: Ratio of OC1(c2ccc(Cl)cc2)c2ccccc2C2=NCCCN21 (stereo unspecified) ?
2.2

---

Could you please report measured Ki for the items listed next?
Target: UniProtKB P23975
Sequence (P23975 whole entry): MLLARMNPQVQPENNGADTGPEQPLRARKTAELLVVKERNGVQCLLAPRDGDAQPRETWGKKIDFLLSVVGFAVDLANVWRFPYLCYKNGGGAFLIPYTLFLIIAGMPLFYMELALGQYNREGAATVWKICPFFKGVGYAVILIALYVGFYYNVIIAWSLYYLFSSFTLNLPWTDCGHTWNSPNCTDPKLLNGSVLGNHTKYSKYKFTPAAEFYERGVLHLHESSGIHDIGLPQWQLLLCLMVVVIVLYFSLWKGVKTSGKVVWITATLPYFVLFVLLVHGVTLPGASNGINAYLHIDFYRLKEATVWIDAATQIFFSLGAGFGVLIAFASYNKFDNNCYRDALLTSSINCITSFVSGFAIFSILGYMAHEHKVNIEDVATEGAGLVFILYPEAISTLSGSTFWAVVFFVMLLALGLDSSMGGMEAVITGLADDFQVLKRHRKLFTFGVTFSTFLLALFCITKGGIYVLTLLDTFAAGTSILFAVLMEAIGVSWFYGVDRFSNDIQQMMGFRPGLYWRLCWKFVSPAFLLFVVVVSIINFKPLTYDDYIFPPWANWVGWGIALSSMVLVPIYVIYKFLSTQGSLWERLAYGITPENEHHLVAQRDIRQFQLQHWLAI
Experiment: Inhibition of [125I]- RTI -55 binding at the Norepinephrine transporter sites on HEK-hNET cells
Type: cell-based
Enter your answer as a number in nM; do not include the unit.

Could you share what Ki was measured for OC1(c2ccc(Cl)cc2)c2ccccc2C2=NCCN21 (stereo unspecified) [MAZINDOL] , tested on UniProtKB P23975?
18

Could you share what Ki was measured for OC1(c2ccc(Cl)cc2)c2ccc3ccccc3c2C2=NCCN21 (stereo unspecified) , tested on UniProtKB P23975?
33.4

Could you share what Ki was measured for OC1(c2ccc(Cl)cc2)c2ccccc2C2=N[C@H]3CCCC[C@@H]3N21 (stereo partly specified) , tested on UniProtKB P23975?
690

Could you share what Ki was measured for OC1(c2ccc3ccccc3c2)c2ccccc2C2=NCCN21 (stereo unspecified) , tested on UniProtKB P23975?
11

Could you share what Ki was measured for OC1(c2ccc3ccccc3c2)c2ccc3ccccc3c2C2=NCCN21 (stereo unspecified) , tested on UniProtKB P23975?
5.2

Could you share what Ki was measured for OC1(c2ccc(Cl)cc2)c2ccc3ccccc3c2C2=NCCCN21 (stereo unspecified) , tested on UniProtKB P23975?
5.3

---

System: HEK hDAT
Assay: Ratio of the IC50 against DAT in HEK hDAT cells to that of rat striatal membranes.
Type: cell membranes
Conditions: Membrane
readout-kind: Ratio
Give a plain numeric answer without units written out.

Could you share what Ratio was measured for OC1(c2ccc(Cl)cc2)c2ccccc2C2=N[C@H]3CCCC[C@@H]3N21 (stereo not given in full) , tested on HEK hDAT?
4.4

Could you share what Ratio was measured for OC1(c2ccc3ccccc3c2)c2ccc3ccccc3c2C2=NCCN21 (stereo not given) , tested on HEK hDAT?
0.07

Could you share what Ratio was measured for OC1(c2ccc(Cl)cc2)c2ccc3ccccc3c2C2=NCCN21 (stereo not given) , tested on HEK hDAT?
1.7

Could you share what Ratio was measured for OC1(c2ccc3ccccc3c2)c2ccccc2C2=NCCN21 (stereo not given) , tested on HEK hDAT?
1.9

Could you share what Ratio was measured for OC1(c2ccc(Cl)cc2)c2ccc3ccccc3c2C2=NCCCN21 (stereo not given) , tested on HEK hDAT?
0.05

---

Assay: Discrimination ratio against NET as ratio of IC50 to that of Ki uptake to NET.
Format: functional
// returns not fulfilled unless Ratio is strictly below 0.5, in which case fulfilled

API: query returns whether the molecule falls strictly under 0.5 in Ratio. Query: OC1(c2ccc3ccccc3c2)c2ccc3ccccc3c2C2=NCCN21 (stereo unspecified)
not fulfilled

API: query returns whether the molecule falls strictly under 0.5 in Ratio. Query: OC1(c2ccc(Cl)cc2)c2ccc3ccccc3c2C2=NCCCN21 (stereo unspecified)
not fulfilled

API: query returns whether the molecule falls strictly under 0.5 in Ratio. Query: OC1(c2ccc(Cl)cc2)c2ccc3ccccc3c2C2=NCCN21 (stereo unspecified)
fulfilled

API: query returns whether the molecule falls strictly under 0.5 in Ratio. Query: OC1(c2ccc(Cl)cc2)c2ccccc2C2=NCCCN21 (stereo unspecified)
fulfilled

API: query returns whether the molecule falls strictly under 0.5 in Ratio. Query: OC1(c2ccc3ccccc3c2)c2ccccc2C2=NCCN21 (stereo unspecified)
fulfilled
